# Method description: Metabolic stability in mouse liver microsomes assessed as parent compound remaining at 0.5 uM after 10 mins
# Assay type: ADME
# Assay conditions: read-out: Stability
Property label: remaining at 10 min, 0.5 µM (%)

INSERT INTO measurements (structure_as_smiles, property_label, value_units, numeric_value) VALUES
  ('Cc1noc(C)c1[C@@H]1C[C@@](C)(c2cc(NC(=O)c3ccc(Cl)cn3)cc(F)c2F)N=C(N)S1', 'remaining at 10 min, 0.5 µM', '%', 58),
  ('Cc1noc(C)c1[C@@H]1C[C@@](C)(c2cc(NC(=O)c3ccc(Cl)cn3)c(F)cc2F)N=C(N)S1', 'remaining at 10 min, 0.5 µM', '%', 75),
  ('Cc1noc(C)c1[C@@H]1C[C@@](C)(c2cc(F)cc(NC(=O)c3ccc(Cl)cn3)c2)N=C(N)S1', 'remaining at 10 min, 0.5 µM', '%', 13),
  ('Cc1noc(C)c1[C@@H]1C[C@@](C)(c2cccc(NC(=O)c3ccc(Cl)cn3)c2F)N=C(N)S1', 'remaining at 10 min, 0.5 µM', '%', 38);

(I) COc1cnc(C(=O)Nc2cc(F)c(F)c([C@]3(C)C[C@@H](c4c(C)noc4C)SC(N)=N3)c2)cn1
(II) Cc1noc(C)c1[C@@H]1C[C@@](C)(c2cc(-c3cncnc3)c(F)cc2F)N=C(N)S1
Pick one, I or II : lowest reported remaining at 10 min, 0.5 µM. # answer = label of selected item
II
(II: 48%, I: 74%)
